- Tested on: MDA-MB-468 spheroids with HUVEC/MSC, viability
- Method notes: Anticancer human tumor MDA-MB-468 cell line growth inhibition [PI3K];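 note: spheroids exposed to agents for seven days before readout; 100% = DMSO vehicle control viability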
- Protocol conditions: second compound 0.0316 µM; first compound 0.01 µM; active compounds read low
Property: viability, T/C (%)
Answers are plain numbers, in %.

Solved cases below.
{"Compound": "CC(=O)c1c(C)c2cnc(Nc3ccc(N4CCNCC4)cn3)nc2n(C2CCCC2)c1=O + CC(Nc1ncnc2nc[nH]c12)c1cc2cccc(Cl)c2c(=O)n1-c1ccccc1", "Tested system": "MDA-MB-468 spheroids with HUVEC/MSC, viability", "Readout value": 103}
{"Compound": "CC(=O)c1c(C)c2cnc(Nc3ccc(N4CCNCC4)cn3)nc2n(C2CCCC2)c1=O + COc1c(OCCCN2CCOCC2)ccc2c3n(c(=NC(=O)c4cnc(N)nc4)nc12)CCN3", "Tested system": "MDA-MB-468 spheroids with HUVEC/MSC, viability", "Readout value": 79.8}

Provide the reported viability, T/C of each entry below, same order.
1. CC(C)n1nc(-c2ccc3oc(N)nc3c2)c2c(N)ncnc21 + Cc1nc(NC(=O)N2CCCC2C(N)=O)sc1-c1ccnc(C(C)(C)C(F)(F)F)c1
2. Cn1ncnc1[C@H]1c2n[nH]c(=O)c3cc(F)cc(c23)N[C@@H]1c1ccc(F)cc1 + COc1c(OCCCN2CCOCC2)ccc2c3n(c(=NC(=O)c4cnc(N)nc4)nc12)CCN3
3. CCN1CCN(Cc2ccc(Nc3ncc(F)c(-c4cc(F)c5nc(C)n(C(C)C)c5c4)n3)nc2)CC1 + CC(Nc1ncnc2nc[nH]c12)c1cc2cccc(Cl)c2c(=O)n1-c1ccccc1
4. CC(C)n1nc(-c2ccc3oc(N)nc3c2)c2c(N)ncnc21 + CC(Nc1ccc2c(c1)OCCn1cc(N3C(=O)OCC3C(F)F)nc1-2)C(N)=O

Ans:
101
67.1
89.8
83

Please go through the list and note viability, T/C for each compound.
1. CC(C)n1nc(-c2ccc3oc(N)nc3c2)c2c(N)ncnc21 + CC(Nc1ncnc2nc[nH]c12)c1cc2cccc(Cl)c2c(=O)n1-c1ccccc1
2. CC(=O)c1c(C)c2cnc(Nc3ccc(N4CCNCC4)cn3)nc2n(C2CCCC2)c1=O + CC(Nc1ccc2c(c1)OCCn1cc(N3C(=O)OCC3C(F)F)nc1-2)C(N)=O

Ans:
82.2
89

---

- System: MDA-MB-468 spheroids with HUVEC/MSC, viability
- Method notes: Anticancer human tumor MDA-MB-468 cell line growth inhibition [PI3K];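 note: spheroids exposed to agents for seven days before readout; 100% = DMSO vehicle control viability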
- Protocol conditions: second compound 0.0316 µM; first compound 10 µM; active compounds read low
Property: viability, T/C (%)
One number for each entry, in %.

Guide cases for viability, T/C, answers given:
{"Compound": "CCCS(=O)(=O)Nc1ccc(F)c(C(=O)c2c[nH]c3ncc(-c4ccc(Cl)cc4)cc23)c1F + CC(Nc1ccc2c(c1)OCCn1cc(N3C(=O)OCC3C(F)F)nc1-2)C(N)=O", "Unit string": "%", "viability, T/C": 14.2}
{"Compound": "CC(Cn1ccc(-c2ccc(C#N)c(Cl)c2)n1)NC(=O)c1cc(C(C)O)[nH]n1 (stereo not drawn) + CC(Nc1ccc2c(c1)OCCn1cc(N3C(=O)OCC3C(F)F)nc1-2)C(N)=O", "Unit string": "%", "viability, T/C": 72.1}

Please find the next compound below.
Q: Recall and state the measured viability, T/C for CCCS(=O)(=O)Nc1ccc(F)c(C(=O)c2c[nH]c3ncc(-c4ccc(Cl)cc4)cc23)c1F + CC(Nc1ncnc2nc[nH]c12)c1cc2cccc(Cl)c2c(=O)n1-c1ccccc1 .
Ans: 15.6
